// data source = paper PMC5540273

System: TSSK3;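 further: KINOMEscan kinase panel screen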
MEASUREMENT_SETUP: concentration: 1 μM,replicates: in singlicate; n = 1
Entries whose %Inh is below 10% take 1 (yes); entries at or above 10% take 0 (no).

>  <MOLECULE>
Cc1cccc2c(-c3ccncc3)c(-c3ccc(F)cc3)nn12.Cl

>  <CLASS_ASSIGNMENT>
0 (no)

$$$$
>  <MOLECULE>
NC(=O)c1ccc(-c2cc3ncnc(SCC(=O)O)c3s2)cc1

>  <CLASS_ASSIGNMENT>
1 (yes)

$$$$
>  <MOLECULE>
Cc1ccn2nc(-c3ccc(F)cc3)c(-c3ccncc3)c2c1.Cl

>  <CLASS_ASSIGNMENT>
1 (yes)

$$$$
>  <MOLECULE>
CN1CCN(CCNc2nc3cc(Oc4ccc(NC(=O)Nc5cc(C(F)(F)F)ccc5F)cc4)ccc3[nH]2)CC1.Cl.Cl

>  <CLASS_ASSIGNMENT>
1 (yes)

$$$$
>  <MOLECULE>
Cn1ccc2ncnc(Oc3ccc(NC(=O)Nc4cnn(C(C)(C)C)c4)c(Cl)c3)c21

>  <CLASS_ASSIGNMENT>
1 (yes)

$$$$

Q: Is 10% strictly greater than the molecule's reported %Inh? molecule: CCNCC(Cc1ccccc1)NC(=O)c1cc(Br)c(-c2ccnc3[nH]ccc23)s1.Cl.Cl (stereo not shown)
A: 0 (no)

Q: Confirm or reject: %Inh of N#Cc1cccc(C(=O)NC2CCN(c3ccnc(Nc4ccc(F)cc4)n3)C2)c1 (stereo not shown) lies strictly below 10%
A: 0 (no)
